- SUBJECT OF TEST: T1, recombinant purified human IL-12 p70 (human, UniProt P29459 23-219)
- T1 sequence 1: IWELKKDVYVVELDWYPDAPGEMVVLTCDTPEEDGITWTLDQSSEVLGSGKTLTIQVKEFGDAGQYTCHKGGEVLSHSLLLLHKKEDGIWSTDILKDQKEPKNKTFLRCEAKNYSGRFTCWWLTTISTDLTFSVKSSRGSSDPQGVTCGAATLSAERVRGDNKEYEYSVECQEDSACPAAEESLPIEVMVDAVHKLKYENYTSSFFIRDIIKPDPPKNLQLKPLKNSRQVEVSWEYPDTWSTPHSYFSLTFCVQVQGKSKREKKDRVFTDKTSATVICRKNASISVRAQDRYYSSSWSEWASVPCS
- T1 sequence 2: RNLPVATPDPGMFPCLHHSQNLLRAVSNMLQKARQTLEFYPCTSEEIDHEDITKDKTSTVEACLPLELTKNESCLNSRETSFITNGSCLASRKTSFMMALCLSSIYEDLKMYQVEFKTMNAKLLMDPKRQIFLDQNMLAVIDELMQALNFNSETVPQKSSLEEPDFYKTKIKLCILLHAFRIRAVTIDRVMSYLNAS
- ASSAY SUMMARY: cell-based or functional assay
Measured Average IC50 (nM) Human IL-12, PHA blast IFN-γ assay by item
Expressed in nM, but write only the number.

Look up and report measured Average IC50 (nM) Human IL-12, PHA blast IFN-γ assay for this entry: murine anti-human IL-12p40 monoclonal antibody 1D8 (antibody, V domains shown, Murine mAb) VH: QVQLQQSGAELMKPGASVKISCKATGYTFSSYWIEWVKQRPGHGLEWIGDILPGSGSTNYNEKFKDKATFTADTSFNTAYMQLSSLTSEDSAVYYCATRRFRGLDYWGQGTTLTVSS VL: SIVMTQTPKFLLVSAGDRVTITCKASQSVSNDVAWYQQKSGQSPKLLIYYASNRYTGVPDRFTGSGYGTDFTFTISTVQPEDLAVYFCQQDYTSPFTFGSGTKLEIKR 0.31

Output Average IC50 (nM) Human IL-12, PHA blast IFN-γ assay of murine anti-human IL-12p40 monoclonal antibody 1D4 (antibody, V domains shown, Murine mAb purified from hybridoma supernatant) VH: QVTLKESGPGILQPSQTLSLTCSFSGFSLRKSVMGVSWIRQPSGKGLEWLAHIYWDDDKYYNPSLKSRLTISKDPSRNQVFLKITSVDTADAATYYCTRRGIRSAMDYWGQGTSVTVSS VL: SVVMTQTPKFLLVSAGDRVTITCKASQSVSNDVAWYQQKPGQSPKLLIYYASNRYTGVPDRFTGSGYGTDFTFIISTVRAEDLAVYFCQQDYNSPWTFGGGTKLEIKR 0.031

// fetch Average IC50 (nM) Human IL-12, PHA blast IFN-γ assay given entry murine anti-human IL-12p40 monoclonal antibody 1H6 (antibody, V domains shown, Murine mAb) VH: EVKLVESGGGLVQPGGSRKLSCAASGFTFSDYGMVWVRQAPGKGLEWVAYISSGSSTIHYADTMKGRFTISRDNPKNTLFLQMSSLRSEDTAMYYCARRHYYAMDYWGQGTSVTVSS VL: SFVMTQTPKFLLVSAGDRVTITCKASQSVSNDVAWYQQKPGQSPKLLIYYASNRYTGVPDRFTGTGYGTDFTFTISTVQAEDLAVYFCQQDYTSPFTFGSGTKLEIKR 0.69

Quickly give me recorded Average IC50 (nM) Human IL-12, PHA blast IFN-γ assay for murine anti-human IL-12p40 monoclonal antibody 1A6 (antibody, V domains shown, Murine mAb) VH: QVTLKESGPGILKPSQTLSLTCSFSGFSLSTSGMGVSWIRQPSGKGLEWLAHIWWDGDNYYNPSLKSQLTISKDTSRNQVFLRIATVDTADTATYYCARRTRVNYAMDYWGQGTSVTVSS VL: SVVMTQTPKFLLVSAGDRVTITCKASQSVSNDVAWFQQKPGQSPKLLIYYASNRYTGVPDRFTGSGYGTDFTFTISTVQAEDLAVYFCQQDYNSPWTFGGGTKLEIKR 0.052
